Assign pH to each entry below.
- PROTOCOL NOTES: Aqueous solubility measurements
- Assay type: physicochemical
- CONDITIONS USED: final pH of saturated solution; media SGF; 24 hours at 25° C.
One number for each entry.

Consider the worked cases shown below.
COMPOUND: Cc1nc(-c2ccc(OCC(C)C)c(C#N)c2)sc1C(=O)O [Form G of U.S. Pat. No. 6,225,474, reference compound]
pH: 2.118
//
COMPOUND: Cc1nc(-c2ccc(OCC(C)C)c(C#N)c2)sc1C(=O)O [Form XI]
pH: 2.114
//
COMPOUND: Cc1nc(-c2ccc(OCC(C)C)c(C#N)c2)sc1C(=O)O [Form IX]
pH: 2.097

Lab note: next compound to report on.
Input: I have this compound here, Cc1nc(-c2ccc(OCC(C)C)c(C#N)c2)sc1C(=O)O [Form V] , and I need its recorded pH.
Output: 2.108

Origin of measurements: patent US20130225830A1
